Tested on: NCI-H1417 complex spheroids, growth % test/control
ASSAY_NOTES: Anticancer human tumor NCI-H1417 cell line growth inhibition [Asc]; active = viability on the fitted dose curve at most 10% of control; inactive = the rest;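 also: spheroids exposed to compounds for 7 days; 100% = DMSO vehicle control wells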
CONDITION_INFO: second compound 1 µM; first compound 0.00949 µM
Your reply should match one of these outcome classes. active, inactive

Please review the entries below; each comes with its answer.
| COMPOUND | TESTED_SYSTEM | CLASSIFICATION |
| --- | --- | --- |
| NC(=O)C(=Cn1cnc(-c2cc(C(F)(F)F)cc(C(F)(F)F)c2)n1)c1cncnc1 + Cc1c(S(C)(=O)=O)c(-c2cc(F)cc(N3CCN(c4ccc(NS(=O)(=O)c5ccc(NC(CCN6CCC(C(=O)OCCCP(=O)(O)O)CC6)CSc6ccccc6)c(S(=O)(=O)C(F)(F)F)c5)cc4)CC3)c2)c(-c2ccc(Cl)cc2)n1C(C)C | NCI-H1417 complex spheroids, growth % test/control | active |
| CCN1C(C(=O)NC23CCC(C(=O)O)(CC2)CC3)C(c2cccc(Cl)c2F)C2(C(=O)Nc3cc(Cl)ccc32)C12CCCCC2 (stereo not drawn) + Cc1c(S(C)(=O)=O)c(-c2cc(F)cc(N3CCN(c4ccc(NS(=O)(=O)c5ccc(NC(CCN6CCC(C(=O)OCCCP(=O)(O)O)CC6)CSc6ccccc6)c(S(=O)(=O)C(F)(F)F)c5)cc4)CC3)c2)c(-c2ccc(Cl)cc2)n1C(C)C | NCI-H1417 complex spheroids, growth % test/control | inactive |

Shifting focus to the compound that follows.
Input: Called result for NC(=O)C(=Cn1cnc(-c2cc(C(F)(F)F)cc(C(F)(F)F)c2)n1)c1cncnc1 + CNC(C)C(=O)NC1CN(S(=O)(=O)c2cccc(S(=O)(=O)N3CCC4CCC(C(=O)NC(c5ccccc5)c5ccccc5)N4C(=O)C(NC(=O)C(C)NC)C3)c2)CCC2CCC(C(=O)NC(c3ccccc3)c3ccccc3)N2C1=O
Output: inactive

----------
Test system: NCI-H1417 complex spheroids, growth % test/control
ASSAY_NOTES: Anticancer human tumor NCI-H1417 cell line growth inhibition [Asc];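 also: spheroids exposed to compounds for 7 days; 100% = DMSO vehicle control wells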
CONDITION_INFO: second compound 0.949 µM; first compound 0.1 µM; hits give low values
Hi there, I'd appreciate the recorded viability, T/C for every entry that follows.

In the examples that follow, each entry is paired with its recorded viability, T/C.
| COMPOUND | RECORDED_MEASUREMENT |
| --- | --- |
| CCN1CCN(Cc2ccc(Nc3ncc(F)c(-c4cc(F)c5nc(C)n(C(C)C)c5c4)n3)nc2)CC1 + CCN1C(C(=O)NC23CCC(C(=O)O)(CC2)CC3)C(c2cccc(Cl)c2F)C2(C(=O)Nc3cc(Cl)ccc32)C12CCCCC2 | 91.1% |
| COc1c(OCCCN2CCOCC2)ccc2c3n(c(=NC(=O)c4cnc(N)nc4)nc12)CCN3 + CCN1C(C(=O)NC23CCC(C(=O)O)(CC2)CC3)C(c2cccc(Cl)c2F)C2(C(=O)Nc3cc(Cl)ccc32)C12CCCCC2 | 64.9% |
| O=C(c1ccc(F)c(F)c1Nc1ccc(I)cc1F)N1CC(O)([C@@H]2CCCCN2)C1 + CCN1C(C(=O)NC23CCC(C(=O)O)(CC2)CC3)C(c2cccc(Cl)c2F)C2(C(=O)Nc3cc(Cl)ccc32)C12CCCCC2 | 87.5% |
| O=C(c1cc(Cc2n[nH]c(=O)c3ccccc23)ccc1F)N1CCN(C(=O)C2CC2)CC1 + CCN1C(C(=O)NC23CCC(C(=O)O)(CC2)CC3)C(c2cccc(Cl)c2F)C2(C(=O)Nc3cc(Cl)ccc32)C12CCCCC2 | 105% |
| Cn1ncnc1[C@H]1c2n[nH]c(=O)c3cc(F)cc(c23)N[C@@H]1c1ccc(F)cc1 + CCN1C(C(=O)NC23CCC(C(=O)O)(CC2)CC3)C(c2cccc(Cl)c2F)C2(C(=O)Nc3cc(Cl)ccc32)C12CCCCC2 | 34.8% |

Input: Supply viability, T/C measured with NCI-H1417 complex spheroids, growth % test/control for C=C(F)C(=O)N1CCN(c2nc(OCC3CCCN3C)nc3c2CCN(c2cccc4cccc(Cl)c24)C3)CC1CC#N (stereo unspecified) + CCN1C(C(=O)NC23CCC(C(=O)O)(CC2)CC3)C(c2cccc(Cl)c2F)C2(C(=O)Nc3cc(Cl)ccc32)C12CCCCC2 .
Output: 102%
